# measurement-description: LDH cytotoxic activity assay, C6
# Type: cell-based
# settings: rat, C6 glioma cells, C6, 25 μg/mL
# Protocol: The cell lines were cultured in a cell medium (Dulbecco’s modified eagle’s or RPMI 1640) enriched with 10% (v/v) fetal bovine serum and 2% (v/v) Penicillin-Streptomycin (10,000 U/mL). […] Approximately 5 × 10^3 cells in 100 μL were placed into 96-well plates as triplicates and treated with 25, 50, 75, and 100 μg/mL concentrations of test compounds at 37 °C with 5% CO2 for 24 h. LDH activity was obtained by determining absorbance at 492–630 nm using a microplate reader.
Kindly supply the reported cytotoxicity at 24 h, 25 μg/mL values for the records listed here.
Output should be the measured figure followed by the unit it is expressed in.

Entry `CC(=O)OC[C@H]1O[C@@H](Nc2nc(-c3ccncc3)cc(-c3ccc(C)cc3)n2)[C@H](OC(C)=O)[C@@H](OC(C)=O)[C@@H]1OC(C)=O` needs its cytotoxicity at 24 h, 25 μg/mL filled in; supply it.
27.2%

Entry O=c1[nH]cc(F)c(=O)[nH]1 [Compound 5FU, 5-fluorouracil, reference compound] needs its cytotoxicity at 24 h, 25 μg/mL filled in; supply it.
10%

Entry `CC(=O)OC[C@H]1O[C@@H](Nc2nc(-c3ccc(C)cc3)cc(-c3cccnc3)n2)[C@H](OC(C)=O)[C@@H](OC(C)=O)[C@@H]1OC(C)=O` needs its cytotoxicity at 24 h, 25 μg/mL filled in; supply it.
32%

Entry `CC(=O)OC[C@H]1O[C@@H](Nc2nc(-c3ccncc3)cc(-c3ccccc3C)n2)[C@H](OC(C)=O)[C@@H](OC(C)=O)[C@@H]1OC(C)=O` needs its cytotoxicity at 24 h, 25 μg/mL filled in; supply it.
21.1%

Entry `CC(=O)OC[C@H]1O[C@@H](Nc2nc(-c3cccnc3)cc(-c3cccc(C)c3)n2)[C@H](OC(C)=O)[C@@H](OC(C)=O)[C@@H]1OC(C)=O` needs its cytotoxicity at 24 h, 25 μg/mL filled in; supply it.
18.4%

Entry `Cc1ccc(-c2cc(-c3ccccn3)nc(N[C@@H]3O[C@H](CO)[C@@H](O)[C@H](O)[C@H]3O)n2)cc1` needs its cytotoxicity at 24 h, 25 μg/mL filled in; supply it.
22%

Entry `CC(=O)OC[C@H]1O[C@@H](Nc2nc(-c3cccnc3)cc(-c3ccccc3C)n2)[C@H](OC(C)=O)[C@@H](OC(C)=O)[C@@H]1OC(C)=O` needs its cytotoxicity at 24 h, 25 μg/mL filled in; supply it.
26.4%

Entry `Cc1ccccc1-c1cc(-c2ccccn2)nc(N[C@@H]2O[C@H](CO)[C@@H](O)[C@H](O)[C@H]2O)n1` needs its cytotoxicity at 24 h, 25 μg/mL filled in; supply it.
28.7%

Entry `Cc1ccc(-c2cc(-c3cccnc3)nc(N[C@@H]3O[C@H](CO)[C@@H](O)[C@H](O)[C@H]3O)n2)cc1` needs its cytotoxicity at 24 h, 25 μg/mL filled in; supply it.
28.4%

Entry `Cc1cccc(-c2cc(-c3cccnc3)nc(N[C@@H]3O[C@H](CO)[C@@H](O)[C@H](O)[C@H]3O)n2)c1` needs its cytotoxicity at 24 h, 25 μg/mL filled in; supply it.
26.9%

Entry `Cc1ccccc1-c1cc(-c2cccnc2)nc(N[C@@H]2O[C@H](CO)[C@@H](O)[C@H](O)[C@H]2O)n1` needs its cytotoxicity at 24 h, 25 μg/mL filled in; supply it.
30.8%

Entry `Cc1ccc(-c2cc(-c3ccncc3)nc(N[C@@H]3O[C@H](CO)[C@@H](O)[C@H](O)[C@H]3O)n2)cc1` needs its cytotoxicity at 24 h, 25 μg/mL filled in; supply it.
28.4%

Entry `Cc1ccccc1-c1cc(-c2ccncc2)nc(N[C@@H]2O[C@H](CO)[C@@H](O)[C@H](O)[C@H]2O)n1` needs its cytotoxicity at 24 h, 25 μg/mL filled in; supply it.
25.3%
